Tested on: ZAP70
Conditions: Compound Concentration (nM):1000;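 also: KINOMEscan scanMAX binding as percent activity remaining versus control; lower means stronger binding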
recorded_metric: Percent Control (%)
Please reply with the bare figure in % and do not write the unit itself.

Q. What does the record list as Percent Control for Cl.O=C(Nc1ccc(Oc2ccc3[nH]c(NC(=O)c4ccccc4)nc3c2)cc1)Nc1cc(C(F)(F)F)ccc1F [GW709042A] ?
A. 94

Q. # Percent Control lookup, item CC1=C(C(=O)Nc2ccc3[nH]ncc3c2)C(c2ccc3ccccc3c2)CC(=O)N1 (centres unmarked) [GSK270822A]
A. 99

Q. Name the recorded Percent Control for COc1ccc2c(-c3ccnc(Nc4cccc(OC(F)(F)F)c4)n3)cnn2n1 [GW810372X] .
A. 86

Q. Could you tell me which Percent Control is on file for COc1cccc(-n2ncc3c(N/N=C/c4ccncc4)ncnc32)c1 [GW784752X] ?
A. 98

Q. Request the reported Percent Control associated with COc1cc(/C=N/Nc2ncnc3[nH]ncc23)ccc1O [GW578748X]
A. 76

###

Test system: RIPK5
Construct: gene DSTYK
Settings: Compound Concentration (nM):1000
Provide the reported Percent Control of each item.
Just the number in %, nothing appended.

Q. Entry O=C(Nc1n[nH]c2nc(-c3ccc(O)cc3)c(Br)cc12)C1CC1 has what Percent Control?
A. 100

Q. Consider the compound NS(=O)(=O)c1ccc(Nc2ncc(-c3ccccc3)o2)cc1 [GW572399X] and give its measured Percent Control.
A. 94

Q. Please report the recorded Percent Control for CN1CCN(C(=O)c2ccc(NC(=O)Nc3ccc(N(C)c4ccnc(Nc5ccc(CS(C)(=O)=O)cc5)n4)cc3)cc2)CC1.Cl [GW830263A] .
A. 5.4

Q. Can you share its Percent Control? I mean this compound: Cl.O=S1CCN(Cc2ccc(-c3ccc4ncnc(Nc5ccc(OCc6ccccc6)c(F)c5)c4c3)o2)CC1 [GW576924A]
A. 87

Q. Given the compound COc1ccc2[nH]c3c4[nH]c5ccc(OC)cc5c4c4c(c3c2c1)C(=O)NC4=O [GW296115X] , what is its reported Percent Control?
A. 27

Q. So what's the measured Percent Control for this one? CCS(=O)(=O)c1ccc(OC)c(Nc2ncc(-c3cccc(OC)c3)o2)c1 [GW580509X]
A. 91

Q. So what's the measured Percent Control for this one? CN(C)c1cc2c(Nc3ccc4c(cnn4Cc4ccccc4)c3)ncnc2cn1 [GW282974X]
A. 90

Q. # Percent Control lookup, item COC(=O)Nc1nc2ccc(Oc3ccc(NC(=O)Nc4cc(C(F)(F)F)ccc4F)cc3)cc2s1.Cl [GW693917A]
A. 100

###

System: DDR1
Settings: Compound Concentration (nM):1000
Give measured Percent Control for each item. Keep answers brief.

Q. Any idea what its Percent Control is? The molecule is Cl.c1ccc(Cc2nc3ccc(Nc4ncnc5ccccc45)cc3[nH]2)cc1 [GR269666A]
A. 100%

Q. May I ask what Percent Control has been recorded for CC1=C(C(=O)Nc2ccc3[nH]ncc3c2)C(c2ccc3ccccc3c2)CC(=O)N1 (stereo not shown) [GSK270822A] ?
A. 79%

Q. Return reported Percent Control; argument: Cl.O=S1CCN(Cc2ccc(-c3ccc4ncnc(Nc5ccc(OCc6ccccc6)c(F)c5)c4c3)o2)CC1 [GW576924A]
A. 100%

Q. What does the data say about its Percent Control? Entry: C/C(Nc1ccc(S(N)(=O)=O)cc1)=C1/C(=O)Nc2ccccc21 [GW335962X]
A. 95%

The reported measurements were obtained from paper PMC7826789.
